Taken from patent US12139520B2.

Entries annotated with measured hAM1R EC50 (cAMP)
# subject of test: hAM1R (human, UniProt Q16602)
# procedure summary: cell-based or functional assay
Bridge positions count the residues as written; N and C are the ends. Square brackets hold non-standard residues; d marks the D form. Ends that are not written are not given here. Hyp = O=C(O)[C@@H]1C[C@@H](O)CN1; Cit = NC(=O)NCCC[C@H](N)C(=O)O

> print(dat)
                                     binder  reported.measurement
1  GCRIGTCTVQ[Cit]LAHQIYQFTDKFKDNVAPRSKISPQT[Hyp]-NH2 (disulfide 2-7 (inferred); ends not checked) [SEQ ID NO: 295]                > 5 µM

## Input For the binder shown here, RCQTSTCTVARLAEQIAQYTDKDKDQVAPPTNVGSNS[Hyp]-NH2 (disulfide 2-7 (inferred); ends not checked) [SEQ ID NO: 32] , give the reported hAM1R EC50 (cAMP).
## Output > 5 µM
